# studySystem: T1, Cynomolgus CD3εδ Fc heterodimer (Cy CD3ε Fc / CD3δ Fc-HIS) (cynomolgus, UniProt Q95LI8 22-100)
# T1 chain 1: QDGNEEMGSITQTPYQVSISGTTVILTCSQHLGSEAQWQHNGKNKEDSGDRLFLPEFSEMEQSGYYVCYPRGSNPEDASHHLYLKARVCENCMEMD
# T1 chain 2: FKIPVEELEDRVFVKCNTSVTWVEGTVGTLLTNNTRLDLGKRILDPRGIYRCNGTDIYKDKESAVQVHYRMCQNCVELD
# experimentDescription: BLI (Octet), IgG on AHC sensor, pH 6.0
outcomeMeasure: koff (s⁻¹)
Supply the numeric figure in s⁻¹, leaving out any unit text.

Sample answers from the record:
INSERT INTO assay_data (binder, recordednumber) VALUES
  ('SAD10319_P06_H08 (ADI-57434) (antibody, V domains shown, IgG; also called Ab164) VH: QVQLVQSGAEVKKPGASVKVSCKASGYTFESYDMHWVRQAPGQTLEWMGWIDAGTGATTYSQKFQGRVTITRDTSASTAYMELSSLRSEDTAVYYCARDAYHHYFYDVWGQGTLVTVSS VL: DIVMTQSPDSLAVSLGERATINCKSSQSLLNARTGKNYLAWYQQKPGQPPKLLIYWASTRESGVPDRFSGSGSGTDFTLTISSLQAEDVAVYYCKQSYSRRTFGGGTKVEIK', 0.0231),
  ('SAD10320_P03_E07 (ADI-57374) (antibody, V domains shown, IgG; also called Ab92) VH: QVQLVQSGAEVKKPGASVKVSCKASGFNIKDYYMHWVRQAPGQRLEWMGWIDLENANTIYDAKFQGRVTITRDTSASTAYMELSSLRSEDTAVYYCARDAVHRYFYDVWGQGTLVTVSS VL: DIVMTQSPDSLAVSLGERATINCKSSQSLLNARTGKNYLAWYQQKPGQPPKLLIYWASTRESGVPDRFSGSGSGTDFTLTISSLQAEDVAVYYCKQSYHPRTFGGGTKVEIK', 0.00699);

Then there is this binder:
Query: What does the data say about its koff? Entry: SAD10318_P04_H12 (ADI-57297) (antibody, V domains shown, IgG; also called Ab228) VH: QVQLVQSGAEVKKPGASVKVSCKASGFNIKDYYMHWVRQAPGQRLEWMGWIDLENANTIYDAKFQGRVTITRDTSASTAYMELSSLRSEDTAVYYCARDAHGRYFHDVWGQGTLVTVSS VL: DIVMTQSPDSLAVSLGERATINCKSSQSLLNAHTGKNHLAWYQQKPGQPPKLLIYWASTRESGVPDRFSGSGSGTDFTLTISSLQAEDVAVYYCHQSYSHRTFGGGTKVEIK
Response: 0.00254
